Recorded measurements of TGI, one per entry
test system: LOX IMVI melanoma; assay: NCI tumour cell line growth inhibition, 48 h
Report as a plain number; the unit µM is understood.

Some entries whose results are on file:
| molecule | unit_name | TGI |
| --- | --- | --- |
| COc1cc(/C=N/NC(=O)c2cnn3c2NC(c2ccccc2)C3)ccc1OCc1ccccc1 (stereo not given) | µM | 2.79 |
| CCCCCCCC(=O)NC(C)(C)C(=O)NCC(=O)NC(CC(C)C)C(=O)NC(C)(C)C(=O)NCC(=O)NCC(=O)NC(CC(C)C)C(=O)NC(C)(C)C(=O)NCC(=O)NC(C(=O)NC(CO)CC(C)C)C(C)CC (stereo not given) | µM | 6.88 |
| N#CC1=C(N)OC2=C(CCCc3ccc([N+](=O)[O-])cc32)C1c1ccc(Cl)cc1 (stereo not given) | µM | 44.5 |

Under LOX IMVI melanoma: TGI value of COC(=O)CC(=O)OC1C[C@@H]2CCC3C(C)(C)CCC[C@]3(C)C23CC[C@@]1(C)C3 (stereo not given in full) ?
32.3

###

Recorded measurements of TGI, one per entry
test system: UO-31 renal; experiment: NCI tumour cell line growth inhibition, 48 h

| molecule | TGI |
| --- | --- |
| O=C(Cn1c(=O)oc2ccccc21)N(c1ccccc1)c1ccccc1 | > 100 µM |
| COc1cc(/C=N\Nc2ccccc2)ccc1OC(=O)c1ccccc1 | > 40.2 µM |
| CC(C)=CC(=O)c1[nH]c2ccccc2c1CC(=O)NCCc1cnc[nH]1 | > 100 µM |
| CCCC(O)c1ccc2[nH]c3c(C)cc([N+](=O)[O-])c(C)c3c2c1 (stereo not drawn) | > 100 µM |
| O=C(O)COc1c(Cl)cc(Cl)c(C(c2c(Cl)cc(Cl)c(OCC(=O)O)c2Cl)C(Cl)(Cl)Cl)c1Cl | 55.2 µM |

Under UO-31 renal: TGI value of O=C(OC1C#CCSCC#C/C=C\1)c1ccc2c(c1)C(=O)c1ccccc1C2=O (stereo not drawn) ?
> 100 µM

Similarly, CC1CCc2c(C(=O)Nc3ncc(Cc4cccc([N+](=O)[O-])c4)s3)csc2C1 (stereo not drawn) ?
> 100 µM

Similarly, NS(=O)(=O)c1cccc(Nc2cc(-c3ccc(F)cc3)[nH]n2)c1 ?
> 25 µM

###

tested on: TK-10 renal; assay: NCI tumour cell line growth inhibition, 48 h; in the data active means GI50 below about 0.43 µM; inactive means the rest
Choose the fitting class; nothing outside yes (1) = active, no (0) = inactive is accepted.

Fill in: this test's call for c1c2c(cc3c1OCO3)-c1ncc3cc4c(cc3c1C2)OCO4 is ___
yes (1)

Similarly, COc1ccc(/C(=C(\c2ccccc2)[N+](=O)[O-])c2ccc(OCCN3CCCC3)cc2)cc1 ?
no (0)

Similarly, O=C(c1ccccc1)c1nn(-c2cccc(Cl)c2)c2nc3nc(-c4ccccc4)cc(=O)n3nc12 ?
no (0)

Similarly, O=C1c2ccccc2-c2cn(Cc3ccccc3)c3cccc(c23)C1c1cccnc1 (stereo not given) ?
no (0)

Similarly, CCCCCCCCCC(=O)Oc1ccc(/C(=C(/C)c2ccccc2)c2ccc(OCCN3CCCC3)cc2)cc1 ?
no (0)

###

tested on: NCI-H226 lung; experiment: NCI tumour cell line growth inhibition, 48 h
measured_attribute: TGI

Under NCI-H226 lung: TGI value of Nc1nc(SCC#CCCl)c2[nH]cnc2n1 ?
26.7 µM

Similarly, C/C(=C\COP(=O)(O)OP(=O)(O)O)CC/C=C(\C)CNc1c(F)c(F)c(F)c(F)c1F ?
> 100 µM

Similarly, Cc1c2ccncc2c(C)c2c1[nH]c1ccc(O)cc12 ?
1.08 µg/mL

Similarly, CCN(CC)c1ccc(N=Nc2ccc(-c3nc4cccnc4s3)cc2)cc1 ?
> 100 µM

Similarly, CC(C)C1OC(=O)C(Cc2ccccc2)N(C)C(=O)C(C(C)C)OC(=O)C(Cc2ccccc2)N(C)C(=O)C(C(C)C)OC(=O)C(Cc2ccccc2)N(C)C1=O (stereo not given) ?
2.72 µM

Similarly, O=C1CC2(CCN(Cc3ccccc3)CC2)C(=O)N1N1CCCCC1 ?
> 100 µM

Similarly, O=C1N(c2ccc(Cl)cc2)C(=O)C2(SC=NN2Cc2ccccc2)N1c1ccc(Cl)cc1 (stereo not given) ?
> 100 µM

Similarly, COc1cc(/C=N\Nc2ccccc2)ccc1OC(=O)c1ccccc1 ?
> 77.6 µM

Similarly, CN(C(=O)C12C3C4C1C1C2C3C41C#N)C(C)(C)C (stereo not given) ?
> 100 µM

Similarly, Cc1cc2c3ccccc3n3c2c2c1OC1(C)CCC(C2C1)C3(C)C (stereo not given) ?
> 25 µM

###

test system: SK-MEL-2 melanoma; experiment: NCI tumour cell line growth inhibition, 48 h
measured_attribute: GI50

| compound | GI50 |
| --- | --- |
| COc1cc(F)c(F)c(Nc2ccc(I)cc2F)c1NS(=O)(=O)C1(CC(O)CO)CC1 (centres undefined) | 4.1 µM |
| O=C(O)CCCCCNCc1cc2cc3c(cc2c2cc(OCc4ccccc4)ccc12)OCO3 | 2.22 µM |
| CCc1ccc([OH2+])c(C(=O)[O-])c1.CCc1ccc([OH2+])c(C(=O)[O-])c1.CCc1ccc([OH2+])c(C(=O)[O-])c1.CCc1ccc([OH2+])c(C(=O)[O-])c1.[Cu+2].[Cu+2] | > 91.3 µM |

Under SK-MEL-2 melanoma: GI50 value of NS(=O)(=O)c1cccc(Nc2cc(-c3ccc(F)cc3)[nH]n2)c1 ?
16.1 µM

Similarly, Nc1nc(SCC#CCCl)c2[nH]cnc2n1 ?
4.92 µM

Similarly, COc1cc(/C=N/NC(=O)c2cnn3c2NC(c2ccccc2)C3)ccc1OCc1ccccc1 (centres undefined) ?
1.32 µM

Similarly, CSc1ccc(-c2cn3ccsc3n2)cc1 ?
4 µM

Similarly, O=C(NCCN1CCOCC1)c1cc2c(Oc3ccc(NC(=O)C4(C(=O)Nc5ccc(F)cc5)CC4)cc3)ccnc2[nH]1 ?
9.19 µM

Similarly, O=C(CC1(O)C(=O)Nc2ccc(Cl)cc21)c1ccc(C(=O)NCC2CCC3(CC2)OOC2(CCCCC2)OO3)cc1 (centres undefined) ?
2.16 µM

###

test system: OVCAR-4 ovarian; assay: NCI tumour cell line growth inhibition, 48 h
Recorded measurements of log10 TGI, one per entry
Please be aware that the numbers have been log10-transformed from TGI in µM.

Some entries whose results are on file:
| compound | recorded_value |
| --- | --- |
| CC1=C(C(=S)Nc2ccc(Cl)c(C(=O)OC(C)C)c2)SCCO1 | 1.64 |
| CCOC(=O)c1cccc(N=NNc2cccc(C(=O)OCC)c2)c1 | 1.80 |
| Cc1ccccc1NC(=O)C(=O)C(C(=O)c1ccccc1F)C1OC(=O)c2ccccc21 (stereo not given) | 1.78 |
| C(=C\c1ccc2ccccc2c1Nc1ccccc1)/c1ccccc1 | 1.37 |
| CN(C)CCCn1c(-c2ccc(Br)cc2)csc1=Nc1ccccc1 | 1.58 |
| C=C(CN1CCN(c2cc(C(F)(F)F)cc(C(F)(F)F)c2)CC1)c1ccc(C(=O)Nc2ccccc2N)cc1 | 1.00 |
| COc1cc(/C=N/NC(=O)c2cnn3c2NC(c2ccccc2)C3)ccc1OCc1ccccc1 (stereo not given) | 0.49 |
| C(/C=C(\Nc1ccccc1)c1ccc2ccccc2c1)=Nc1ccccc1 | 1.16 |

Requested read-out: log10 TGI. Entry: O=C1CCNC/C1=C\c1ccccc1
1.50

Similarly, O=C(C=P(c1ccccc1)(c1ccccc1)c1ccccc1)c1ccccc1-c1ccccc1C(=O)C=P(c1ccccc1)(c1ccccc1)c1ccccc1 ?
0.21

###

Recorded measurements of TGI, one per entry
test system: SF-539 CNS; test: NCI tumour cell line growth inhibition, 48 h

Requested read-out: TGI. Entry: C=C(CN1CCN(c2cc(C(F)(F)F)cc(C(F)(F)F)c2)CC1)c1ccc(C(=O)Nc2ccccc2N)cc1
> 100 µM

Similarly, Cc1nc2nnc(CCCCCCCCc3nnc4nc(C)[nH]n34)n2[nH]1 ?
> 100 µM

Similarly, CNC(=O)OC1/C(C)=C\C(C)C(O)C(OC)CC(C)CC2=C(OC)C(=O)C=C(C2=O)N(C)C(=O)/C(C)=C/C=C\C1OC (stereo not given) ?
23.3 µM

Similarly, CC(C)(C)n1cc(-c2ccnc(NCCCNS(=O)(=O)c3cccc4ccccc34)c2)c(-c2cccc(O)c2)n1 ?
3.52 µM

###

test system: SF-268 CNS; experiment: NCI tumour cell line growth inhibition, 48 h
Recorded measurements of TGI, one per entry
Report as a plain number; the unit µM is understood.

Requested read-out: TGI. Entry: c1c2c(cc3c1OCO3)-c1ncc3cc4c(cc3c1C2)OCO4
7.79

Similarly, CO[C@H]1C[C@H](O[C@H]2CC[C@@]3(C)[C@H](CC[C@@H]4[C@@H]3CC[C@]3(C)[C@@H](C5=CC(=O)OC5)CC[C@]43O)C2)O[C@H](C)[C@H]1O ?
0.0188

Origin of measurements: PubChem BioAssay (NCI)
